Tested on: Avena fatua (AVEFA)
Experiment: Pre-emergence herbicidal glasshouse test, Avena fatua
Format: in vivo
Settings: Avena fatua, 312 h, rate 250 g/ha, evaluated after 13 days, scale 100 = total damage to plant, 0 = no damage
Quantity name: pest or weed control at 250 g/ha (%)

In [3]: df
Out[3]:
                                    compound                     quantity_name  numeric_result
 0  CCc1cc(-c2ccc(F)c(F)c2)ccc1C1=C(O)C(C)(C)[S+]([O-])C(C)(C)C1=O (stereo not shown) [Compound B-11]  pest or weed control at 250 g/ha              20
 1  CCc1cc(-c2cc(Cl)ccc2OC)ccc1C1=C(O)C(C)(C)C(=O)C(C)(C)C1=O [Compound C-6]  pest or weed control at 250 g/ha              10
 2  CCc1cc(-c2ccc(Cl)cc2)cc(CC)c1C1=C(O)[C@@]2(C)CC[C@H](O2)C1=O (racemic) [Compound A-11]  pest or weed control at 250 g/ha             100
 3  CCc1cc(-c2ccc(Cl)cc2)ccc1C1=C(O)[C@@]2(C)C=C[C@H](O2)C1=O [Compound A-7]  pest or weed control at 250 g/ha               0
 4  CCc1cc(-c2ccc(F)c(F)c2)ccc1C1=C(O)C(C)(CC)OC(C)(CC)C1=O (stereo not shown) [Compound A-129]  pest or weed control at 250 g/ha              10
 5  CCc1cc(-c2ccc(F)cc2)ccc1C1=C(O)C(C)(COC)OC(C)(C)C1=O (stereo not shown) [Compound A-101]  pest or weed control at 250 g/ha              50
 6  CCc1cc(-c2cc(F)c(F)cc2F)ccc1C1=C(O)C(C)(C)OC(C)(C)C1=O [Compound A-86]  pest or weed control at 250 g/ha               0
 7  CCc1cc(-c2ccc(F)cc2)ccc1C1=C(O)C(C)(CC)OC(C)(C)C1=O (stereo not shown) [Compound A-102]  pest or weed control at 250 g/ha              10
 8  CCc1cc(-c2ccc(F)cc2)ccc1C1=C(O)C2(CCCC2)OC(C)(C)C1=O [Compound A-103]  pest or weed control at 250 g/ha               0
 9  CCc1cc(-c2ccc(Cl)c(F)c2Cl)ccc1C1=C(O)C(C)(C)OC(C)(C)C1=O [Compound A-46]  pest or weed control at 250 g/ha               0
10  CCc1cc(-c2cc(Cl)cc(Cl)c2)ccc1C1=C(O)[C@@]2(C)CC[C@H](O2)C1=O [Compound A-15]  pest or weed control at 250 g/ha              40
11  CCc1cc(-c2ccc(F)c(F)c2F)ccc1C1=C(O)C(C)(CC)OC(C)(C)C1=O (stereo not shown) [Compound A-123]  pest or weed control at 250 g/ha               0
12  CCc1cc(-c2ccc(C)cc2)cc(CC)c1C1=C(O)[C@@]2(C)CC[C@H](O2)C1=O (racemic) [Compound A-12]  pest or weed control at 250 g/ha              20
13  CCc1cc(-c2ccc(F)c(OC)c2)ccc1C1=C(O)C(C)(COC)OC(C)(C)C1=O (stereo not shown) [Compound A-112]  pest or weed control at 250 g/ha              80
14  CCc1cc(-c2ccc(Cl)c(Cl)c2)ccc1C1=C(O)[C@@]2(C)CC[C@H](O2)C1=O [Compound A-17]  pest or weed control at 250 g/ha              80
15  CCc1cc(-c2ccc(Cl)c(Cl)c2F)ccc1C1=C(O)C(C)(C)OC(C)(C)C1=O [Compound A-48]  pest or weed control at 250 g/ha               0

###

We begin with a simple list: items and their reported pest or weed control at 250 g/ha.
System: Avena fatua (AVEFA)
Assay: Pre-emergence herbicidal glasshouse test, Avena fatua
Format: in vivo
Settings: Avena fatua, 312 h, rate 250 g/ha, evaluated after 13 days, scale 100 = total damage to plant, 0 = no damage
Quantity name: pest or weed control at 250 g/ha (%)

>>> df
                                    molecule  numeric_result
 0  CCc1cc(-c2ccc(Cl)c(F)c2)ccc1C1=C(O)[C@@]2(C)CC[C@H](O2)C1=O (racemic) [Compound A-24]              60
 1  CCc1cc(-c2ccc(F)c(F)c2F)ccc1C1=C(O)C(C)(C)SC(C)(C)C1=O [Compound B-9]               0
 2  CC1(C)OC(C)(C)C(O)=C(c2ccc(-c3ccc(F)cc3)cc2OC(F)(F)F)C1=O [Compound A-135]              10
 3  CCc1cc(-c2ccc(F)c(F)c2F)ccc1C1=C(O)C(C)(CC)OC(C)(CC)C1=O (stereo not shown) [Compound A-133]               0
 4  CCc1cc(-c2ccc(F)c(OC)c2)ccc1C1=C(O)C(C)(C)SC(C)(C)C1=O [Compound B-4]               0
 5  CCc1cc(-c2ccc(F)c(F)c2)ccc1C1=C(O)C(C)(C)C(=O)C(C)(C)C1=O [Compound C-4]               0
 6  CCc1cc(-c2cc(F)c(F)cc2F)ccc1C1=C(O)C(C)(CC)OC(C)(CC)C1=O (stereo not shown) [Compound A-132]               0
 7  CCc1cc(-c2ccc(Cl)cc2F)ccc1C1=C(O)C(C)(C)OC(C)(C)C1=O [Compound A-51]               0
 8  CCc1cc(-c2ccc(Cl)cc2)ccc1C1=C(O)[C@@]2(C)CC[C@H](O2)C1=O (racemic) [Compound A-5]               0
 9  CCc1cc(-c2ccc(Cl)c(Cl)c2)ccc1C1=C(O)C(C)(C)OC(C)(C)C1=O [Compound A-38]               0
10  CCc1cc(-c2cc(F)c(F)cc2F)ccc1C1=C(O)C(C)(C)C(=O)C(C)(C)C1=O [Compound C-7]               0
11  CCc1cc(-c2ccc(F)c(F)c2F)ccc1C1=C(O)C(C)(C)C(=O)C(C)(C)C1=O [Compound C-8]               0
12  CCc1cc(-c2cc(F)c(F)c(F)c2)ccc1C1=C(O)C(C)(C)OC(C)(C)C1=O [Compound A-84]              40
13  CCc1cc(-c2ccc(F)cc2)ccc1C1=C(OC(C)=O)C(C)(C)OC(C)(C)C1=O [Compound D-3]              70
14  CCc1cc(-c2ccc(Cl)c(F)c2F)ccc1C1=C(O)C(C)(C)OC(C)(C)C1=O [Compound A-47]              40
15  CCc1cc(-c2ccc(F)c(F)c2)ccc1C1=C(O)C(C)(C)OC(C)(C)C1=O [Compound A-75]              30
16  CCc1cc(-c2cccc(OC)c2)ccc1C1=C(O)C(C)(C)OC(C)(C)C1=O [Compound A-71]               0
17  CCc1cc(-c2cc(F)c(F)c(F)c2)ccc1C1=C(O)C(C)(CC)OC(C)(C)C1=O (stereo not shown) [Compound A-120]              40
18  CCc1cc(-c2ccc(F)c(F)c2)ccc1C1=C(O)C2(CCCC2)OC(C)(C)C1=O [Compound A-125]               0
19  CCc1cc(-c2ccc(F)c(F)c2F)ccc1C1=C(O)C(C)(C)OC(C)(C)C1=O [Compound A-87]               0
20  CCc1cc(-c2ccc(F)c(F)c2)ccc1C1=C(O)C(C)(C)SC(C)(C)C1=O [Compound B-5]              20
21  CCc1cc(-c2c(F)cc(F)cc2F)ccc1C1=C(O)C(C)(COC)OC(C)(C)C1=O (stereo not shown) [Compound A-116]              60
22  CCOC[C@]12CC[C@H](O1)C(=O)C(c1ccc(-c3ccc(Cl)cc3)cc1CC)=C2O [Compound A-33]              40
23  CCc1cc(-c2ccc(Cl)s2)ccc1C1=C(O)[C@@]2(C)CC[C@H](O2)C1=O [Compound A-23]              40
24  CCc1cc(-c2ccc(F)c(OC)c2)ccc1C1=C(O)C(C)(C)C(=O)C(C)(C)C1=O [Compound C-3]               0
25  CCc1cc(-c2cc(Cl)ccc2OC)ccc1C1=C(O)C(C)(C)OC(C)(C)C1=O [Compound A-74]               0
26  Cc1cc(-c2ccc(Cl)cc2F)cc(C)c1C1=C(O)[C@@]2(C)CC[C@H](O2)C1=O (racemic) [Compound A-53]              60
27  CCc1cc(-c2ccc(Cl)c(F)c2Cl)ccc1C1=C(O)[C@@]2(C)CC[C@H](O2)C1=O (racemic) [Compound A-29]              50
28  Cc1cc(-c2ccccc2)cc(C)c1C1=C(O)[C@@]2(C)C=C[C@H](O2)C1=O [Compound A-2]              20
29  CCc1cc(-c2ccc(F)c(Cl)c2)ccc1C1=C(O)C(C)(C)OC(C)(C)C1=O [Compound A-76]               0
30  CCc1cc(-c2ccc(Cl)c(OC)c2)ccc1C1=C(O)[C@@]2(C)CC[C@H](O2)C1=O [Compound A-20]              40
